Task for the reader: assign each of the following compounds its reported Potency.
Target: Tyrosyl-DNA phosphodiesterase 1 (Homo sapiens) (UniProt Q9NUW8)
Sequence (Q9NUW8 whole entry, looked up): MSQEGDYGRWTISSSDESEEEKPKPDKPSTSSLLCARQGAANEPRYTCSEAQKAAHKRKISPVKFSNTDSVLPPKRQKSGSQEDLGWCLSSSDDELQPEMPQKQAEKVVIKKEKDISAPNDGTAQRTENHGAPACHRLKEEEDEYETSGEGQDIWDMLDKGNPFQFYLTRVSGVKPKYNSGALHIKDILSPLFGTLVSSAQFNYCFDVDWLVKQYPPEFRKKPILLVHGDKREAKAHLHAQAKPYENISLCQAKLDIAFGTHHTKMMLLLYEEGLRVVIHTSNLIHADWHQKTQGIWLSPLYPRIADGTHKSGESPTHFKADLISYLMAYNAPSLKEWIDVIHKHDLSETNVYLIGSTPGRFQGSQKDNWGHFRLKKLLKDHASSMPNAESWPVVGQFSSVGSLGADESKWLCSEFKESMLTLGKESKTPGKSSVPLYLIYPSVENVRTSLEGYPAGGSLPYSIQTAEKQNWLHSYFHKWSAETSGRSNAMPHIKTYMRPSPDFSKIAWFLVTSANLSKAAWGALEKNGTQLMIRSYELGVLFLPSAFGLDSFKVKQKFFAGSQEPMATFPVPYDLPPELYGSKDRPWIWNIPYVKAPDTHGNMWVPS
Assay: Confirmation Assay for Inhibitors of Tyrosyl-DNA Phosphodiesterase (TDP1) (AID 489007); note: potency is the fitted concentration of half-maximal effect; nearly all actives have a fitted effect of over 40% in size
Details: recombinant human TDP1 enzymatic activity, dose-response
Records with an inconclusive call do not appear. Activity calls are given as the source filed them. Calls come from the whole dose curve; as a rule, active = well fitted inhibition curve with a large enough effect; inconclusive = small, poorly fitted or top-dose-only effect; inactive = flat fitted curve, though single readings scatter.

Given the compound O=C(O)c1ccc(Nc2nc(-c3cc4ccccc4oc3=O)cs2)cc1O , what is its reported Potency? 63.1 µM (active)

Query Nc1ccc2nc3c(=O)[nH]c(=S)[nH]c3nc2c1 next 39.8 µM (active)

Subsequent entry: NS(=O)(=O)c1ccc(N=Nc2ccc(=O)[nH]c2O)cc1 6.31 µM (active)

COc1ccc(C(CC(=O)N2CCCC2)c2c(OC)cc(OC)c3c(-c4ccccc4)cc(=O)oc23)cc1 (configuration not stated) ? 2.24 µM (active)

And the next one, O=C(NNC(=O)c1cc2cc(Br)ccc2oc1=O)c1ccc(O)cc1O ? 56.2 µM (active)

Now give it for CN(Cc1ccccc1)c1nc(-c2ccc(F)cc2)cc(C(F)(F)F)n1 too. 28.2 µM (active)

Now try O=C(O)c1ccc(COc2ccccc2/C=C2/NC(=O)N(c3cccc(Cl)c3)C2=O)cc1 . 10 µM (active)

* * *

Target: Rap guanine nucleotide exchange factor 3 (Homo sapiens) (UniProt O95398)
Sequence (O95398 whole entry, looked up): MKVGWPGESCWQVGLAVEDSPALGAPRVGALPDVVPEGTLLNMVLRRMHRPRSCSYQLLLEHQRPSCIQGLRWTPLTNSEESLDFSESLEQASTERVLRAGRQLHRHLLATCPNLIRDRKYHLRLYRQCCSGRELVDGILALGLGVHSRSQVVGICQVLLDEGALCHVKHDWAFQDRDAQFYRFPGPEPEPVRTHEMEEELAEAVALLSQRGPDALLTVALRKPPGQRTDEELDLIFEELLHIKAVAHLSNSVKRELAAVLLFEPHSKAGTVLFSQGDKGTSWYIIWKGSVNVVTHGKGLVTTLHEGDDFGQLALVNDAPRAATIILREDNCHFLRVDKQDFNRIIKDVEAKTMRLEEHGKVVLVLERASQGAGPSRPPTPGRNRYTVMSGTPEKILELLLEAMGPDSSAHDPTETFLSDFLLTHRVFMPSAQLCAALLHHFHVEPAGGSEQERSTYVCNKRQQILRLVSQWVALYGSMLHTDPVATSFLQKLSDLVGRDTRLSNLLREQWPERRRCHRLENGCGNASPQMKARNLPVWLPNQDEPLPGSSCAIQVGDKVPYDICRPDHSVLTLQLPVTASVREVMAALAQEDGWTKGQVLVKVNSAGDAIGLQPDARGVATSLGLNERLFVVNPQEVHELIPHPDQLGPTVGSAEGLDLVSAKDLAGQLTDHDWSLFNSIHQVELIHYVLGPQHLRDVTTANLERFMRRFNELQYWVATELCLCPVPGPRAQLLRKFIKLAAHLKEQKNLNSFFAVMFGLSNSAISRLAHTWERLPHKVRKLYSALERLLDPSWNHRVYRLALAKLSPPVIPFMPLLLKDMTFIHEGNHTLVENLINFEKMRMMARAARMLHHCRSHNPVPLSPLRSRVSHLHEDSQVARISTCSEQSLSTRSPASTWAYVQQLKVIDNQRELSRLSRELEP
Assay: Confirmatory qHTS for agonist of cAMP-regulated guanine nucleotide exchange factor 3 (EPAC1) (AID 1645881);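 note: EPAC1 catalysed release of BODIPY-GDP from Rap1B seen as fluorescence loss; 100% = effect of cAMP agonist control; nearly all actives have a fitted effect of over 75% in size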
Conditions: EPAC1 Rap1B BODIPY-GDP exchange fluorescence; series mostly up to 154 µM
Records with an inconclusive call do not appear. Activity calls are given as the source filed them. The call rests on the fitted dose curve; in most records, active means well fitted activation curve with a large enough effect; inconclusive means small, poorly fitted or top-dose-only effect; inactive means no such curve, though single readings can be large or run the other way.
ASSAY READOUT: outcome

Completed entries (count: 5):
O=C(O)CSCC(=O)N(Cc1ccccc1)c1nc(-c2ccccc2)c(-c2ccccc2)s1 : inactive
COc1cc(NC(=O)c2ccnc(N)c2)cc(C(=O)Nc2cccc(C(F)(F)F)c2)c1 : inactive
CCCNC(=O)Cn1c(=O)/c(=C/c2ccc(-c3ccc([N+](=O)[O-])cc3)o2)s/c1=C\C(=O)C(C)(C)C : inactive
Nc1ccc(C(=O)N/N=C/c2cn(Cc3ccccc3F)c3ccccc23)cc1 : inactive
CCOC(=O)c1c(NC(=O)c2ccc(S(=O)(=O)N(C)CC3CCCO3)cc2)sc2c1CCN(C)C2 (centres undefined) : inactive

Which outcome reading was recorded for the compound Cc1cc(C)n(Cc2ccc(C(=O)N/N=C/c3ccc(-c4ccc([N+](=O)[O-])cc4)o3)o2)n1 ? inactive

# iterate: O=C(O)c1ccc(NS(=O)(=O)c2ccc3c(c2)C2C=CCC2C(c2ccccc2F)N3)cc1 (centres undefined) inactive

Again, but for Cc1nn(-c2ccccc2)c2nc(N)c(C#N)c(-c3ccc(O)c(O)c3)c12 inactive

Ok, now COC(=O)[C@H](Cc1ccccc1)NC(=O)c1ccc2ccccc2n1 inactive

* * *

Target: Rap guanine nucleotide exchange factor 3 (Homo sapiens)
Assay: Confirmatory qHTS for antagonist of cAMP-regulated guanine nucleotide exchange factor 3 (EPAC1) (AID 1645880); note: nearly all actives have a fitted effect of over 55% in size
Details: EPAC1 Rap1B-BODIPY-GDP exchange, fluorescence
Records with an inconclusive call do not appear. Activity calls are given as the source filed them. The call rests on the fitted dose curve; in most records, active means well fitted inhibition curve with a large enough effect; inconclusive means small, poorly fitted or top-dose-only effect; inactive means no such curve, though single readings can be large or run the other way.
Use one of these outcomes when replying: 1.0 for active, 0.0 for inactive

// outcome(item) with item = COC(=O)c1nc2nc(C)cc(=O)n2[nH]1 0.0

Can you handle COC(=O)[C@@H](NC(=O)Nc1ccc2c(c1)OCCO2)C(C)C next? 0.0

Note, next up: COC(=O)C1=NN(c2ccc(C)cc2)C2(S1)SC(C(C)=O)=C(C)N2c1ccccc1 (stereo unspecified) 0.0

CC(=O)Nc1cc(C(=O)NCc2ccco2)ccc1Sc1ccc(C)cc1 , same question. 0.0

Continue with CCN(CC(=O)Nc1ccc(OC)cc1)C(=O)Cc1cccs1 1.0

Lookup Nc1nc(C(c2ccccc2)c2ccccc2)cs1 0.0

Subsequent entry: CCCN1C(=O)c2[nH]nc(-c3cccc(OC)c3)c2C1c1ccccn1 (stereo unspecified) 0.0

Now give it for O=C1C2CCCN2C(c2ccccc2F)N1c1cccc(Cl)c1 (stereo unspecified) too. 0.0

And what about the compound CC(=O)NC(c1cccc(F)c1)c1nc(-c2ccccc2)cs1 (stereo unspecified) ? 0.0

Would you mind doing Cc1cc(OC(C)C(=O)NCc2ccccn2)c2c(C)c(Cc3ccccc3)c(=O)oc2c1 (stereo unspecified) as well? 1.0

Same lookup for O=C(C1=NN(c2ccccc2)C2C(=O)N(c3ccccc3)C(=O)C12)c1ccccc1 (stereo unspecified) , please. 0.0
